Reported Percentage of growth inhibition, CAOV−3 values for the following compounds.
- System: CAOV-3
- method-summary: Growth inhibition assay (SRB)
- Type: cell-based
- assay-setup: 1 μM, 3 days of treatment, Table II

>  <structure>
CCCCOC(=O)c1ccc(NC(=O)Nc2c(OC)ccc3c2C(C)(C)COC3(C)C)cc1

>  <system>
CAOV-3

>  <Percentage of growth inhibition, CAOV−3>
15.24%

$$$$
>  <structure>
CCOC(=O)c1ccc(NC(=O)Nc2cccc3c2SC(C)(C)CC3(C)C)cc1

>  <system>
CAOV-3

>  <Percentage of growth inhibition, CAOV−3>
17.55%

$$$$
>  <structure>
CC1(C)CC(C)(C)c2cc(NC(=S)Nc3ccc(S(N)(=O)=O)cc3)ccc2S1

>  <system>
CAOV-3

>  <Percentage of growth inhibition, CAOV−3>
19.85%

$$$$
>  <structure>
CC(=O)c1cc(NC(=S)Nc2ccc([N+](=O)[O-])cc2)c2c(c1)C(C)(C)CCO2

>  <system>
CAOV-3

>  <Percentage of growth inhibition, CAOV−3>
3.85%

$$$$
>  <structure>
CC1(C)CC(C)(C)c2cc(NC(=O)Nc3ccc(C(=O)O)cc3)ccc2S1

>  <system>
CAOV-3

>  <Percentage of growth inhibition, CAOV−3>
−4.00%

$$$$
>  <structure>
Cc1cc([N+](=O)[O-])ccc1NC(=S)Nc1ccc2c(c1)C(C)(C)CC(C)(C)S2

>  <system>
CAOV-3

>  <Percentage of growth inhibition, CAOV−3>
15.33%

$$$$
